Tested on: TO-3-N3-2 (biotin conjugate)
Test: pull-down binding Z-score (relative to library population); higher = stronger binding
Details: RNA library: Library-2
Mark not satisfied for pull-down binding Z-score values under 0.07, and satisfied for everything at or above.

Solved cases below.
seq_text	target_of_assay	label
AUGUUCGCUUCAUUCAUCAUGAAUAA [hsa-mir-655]	TO-3-N3-2 (biotin conjugate)	satisfied
CUGCUGAAUCUUCAGAAAGG [hsa-mir-3142]	TO-3-N3-2 (biotin conjugate)	not satisfied
AGGCCAUACGUGUUGGAGAUU [hsa-mir-4461]	TO-3-N3-2 (biotin conjugate)	satisfied
CUCUGGAACACUUUUACAAGACUUCAGAG [SHAPE_invivo_SARS-CoV-2_Motif_367]	TO-3-N3-2 (biotin conjugate)	not satisfied
UGAAUUAGACUCAUUCA [DMSMaPseq_invitro_SARS-CoV-2_Motif_447]	TO-3-N3-2 (biotin conjugate)	not satisfied

Continue with the next sequence.
Exercise: Could you verify whether the entry GGGCCUCCCUGUUCUCAGCGGUCC [IAV_invivo_PA_3_Motif_11+IAV_invivo_PA_3_Motif_11] shows pull-down binding Z-score of no less than 0.07?
Solution: not satisfied

* * *

System: TO-N3 (biotin conjugate)
Assay: pull-down binding Z-score (relative to library population); higher = stronger binding
Details: RNA library: Library-2
pull-down binding Z-score: recorded values
Just the number, please, no unit after it.

>>> print(df.to_string())
                                   seq_text          measured_endpoint  observed_result
0     UGUCAUUACUUUUAAUGGUA [hsa-mir-548h-1]  pull-down binding Z-score            -0.56
1  CAUCCCGGACGGCCUGUGAGGGAUG [hsa-mir-4787]  pull-down binding Z-score              1.1
2  UCUCCUCAUUUACUGUGAAUGUGAGGGGA [IAV_invivo_PB2_1_Motif_31+IAV_invivo_PB2_1_Motif_31]  pull-down binding Z-score            -0.72
3  UGUGGCCUUUUUGCCUUUUCUAAAGGCCACAU [hsa-mir-1250]  pull-down binding Z-score           -0.489
4  GCUGGUGACAUUGCUAAUUCAUUUCACACCAGC [hsa-mir-4293]  pull-down binding Z-score            -1.31

We now examine a further sequence.
Exercise: # input sequence: GAAAUAGGCUGCGAAGAUAACAGUAUUUC [hsa-mir-3942] ; wanted: its pull-down binding Z-score
Solution: -0.979

* * *

System: TO-3-N3 (biotin conjugate)
Assay: pull-down binding Z-score (relative to library population); higher = stronger binding
Conditions: RNA library: Library-2
measured_endpoint: pull-down binding Z-score
Just the number, please, no unit after it.

Exercise: # input sequence: CCAGUACCAGAGGUGAAAAUACUCAAUAAUUUGGGUGUGGACAUUGCUGCUAAUACUGUG ; wanted: its pull-down binding Z-score
Solution: 1.32

Exercise: # input sequence: GGAGUAAGUCUGAUACUUACCUG [U1snRNP5ss-1] ; wanted: its pull-down binding Z-score
Solution: -0.0269

* * *

Tested on: TO-3-N3-2 (biotin conjugate)
Assay: pull-down binding Z-score (relative to library population); higher = stronger binding
Settings: RNA library: Library-2
measured_endpoint: pull-down binding Z-score
Just the number, please, no unit after it.

>>> df
                                   seq_text          measured_endpoint  observed_result
0  AAGCCCUACGAGAAACUGGGGUUUCUGGA [hsa-mir-765]  pull-down binding Z-score            0.277
1         UAUCUAUAUAUAUGUGUA [hsa-mir-3171]  pull-down binding Z-score          -0.0303
2            ACAUCAGCUUGUGUUUUGGCUGCUGAAUGU  pull-down binding Z-score           -0.534

Exercise: # input sequence: UUCCUUGUCUGUAGCCAUGUCUAUGGGCUCUUGAG [hsa-mir-571] ; wanted: its pull-down binding Z-score
Solution: -0.0353

Exercise: # input sequence: GUCCCAAUACAUGUGGGCC [hsa-mir-586] ; wanted: its pull-down binding Z-score
Solution: -0.158

Exercise: # input sequence: GGGUACGACUUUGAAAGGGAGGGAUACUCUCUAGUCGGAAUAGACCC [IAV_invivo_NP_5_Motif_16+IAV_invivo_NP_5_Motif_16] ; wanted: its pull-down binding Z-score
Solution: 0.439

Exercise: # input sequence: UGGCCAUGGUACAUUUGGCUA ; wanted: its pull-down binding Z-score
Solution: -0.0742

Exercise: # input sequence: GGUUCCCACGCCGCGGCAACC [hsa-mir-6776] ; wanted: its pull-down binding Z-score
Solution: -0.135

Exercise: # input sequence: UUUCUGUUGUCUGAAAGAAGAGAAA [hsa-mir-526b_518a-1] ; wanted: its pull-down binding Z-score
Solution: -0.214

Exercise: # input sequence: UAGCGUGCCUUUGUAAGCACAAGCUG ; wanted: its pull-down binding Z-score
Solution: 0.0842

Exercise: # input sequence: CUGAGGACAUGCAGUUUCAG [hsa-mir-7702] ; wanted: its pull-down binding Z-score
Solution: -0.579

Exercise: # input sequence: AGAAGCUAAAGUGUAGAUCAAACGCAUAAUGGCUGA [hsa-mir-4500] ; wanted: its pull-down binding Z-score
Solution: 0.195

* * *

Test system: TO-3-N3 (biotin conjugate)
Test: pull-down binding Z-score (relative to library population); higher = stronger binding
Details: RNA library: Library-2
measured_endpoint: pull-down binding Z-score
Just the number, please, no unit after it.

Worked set:
>>> print(df.to_string())
                                   seq_text  observed_result
0       UGUCUUGUGUCUGUAAGUAU [hsa-mir-1275]           -0.619
1  GGACCAGCCCAAAGGCCAGGCCUGACCC [hsa-mir-4780]            0.125

Exercise: # input sequence: CAAUCAUGUAUAACUAAAUUUGAUUG [hsa-mir-514a-2_514a-3] ; wanted: its pull-down binding Z-score
Solution: -1.04

Exercise: # input sequence: GGCCAGCAGAGGCC [IAV_invivo_PA_3_Motif_7+IAV_invivo_PA_3_Motif_7] ; wanted: its pull-down binding Z-score
Solution: 0.905

Exercise: # input sequence: AACAACAGCAUCAGAAGCAACAUCAGCUUUAGUU [hsa-mir-569] ; wanted: its pull-down binding Z-score
Solution: 0.728

Exercise: # input sequence: AUUUCUGUGUUCGUUAGGCAACAG [hsa-mir-221] ; wanted: its pull-down binding Z-score
Solution: 0.785

Exercise: # input sequence: UCUCUAUGACAAACUUGUUUCAAGCUUUUUGGAAAUGAAGAGUGAAAAGCAAGUUGAACAAAAGAUCGCUGAGA [SHAPE_invitro_SARS-CoV-2_Motif_69] ; wanted: its pull-down binding Z-score
Solution: -0.0465

Exercise: # input sequence: UCGCUUGCAAGUUGGAUUCAGAAUGAGUUUAACAAGGCAUGCGA [IAV_invivo_PA_3_Motif_18+IAV_invivo_PA_3_Motif_18] ; wanted: its pull-down binding Z-score
Solution: -0.53

Exercise: # input sequence: CGGAAUUCUCCAGAGCCUCUG [hsa-mir-6889] ; wanted: its pull-down binding Z-score
Solution: 0.188

Exercise: # input sequence: CUCACUGCAGAAUUAUUUUGAG [hsa-mir-4524a] ; wanted: its pull-down binding Z-score
Solution: -0.62

Exercise: # input sequence: CUUGAUUUAAAUGUCCAUACAAUUAAG [hsa-mir-124-1] ; wanted: its pull-down binding Z-score
Solution: -0.0597

Exercise: # input sequence: UUUUAAUUUUUUUAAAA [hsa-mir-3606] ; wanted: its pull-down binding Z-score
Solution: 0.211

Exercise: # input sequence: CAUGUGGUAGUGUUGGUUUUAACAUAGAUUAUGACUGUGUCUCUUUUUGUUACAUGCACCAUAUG ; wanted: its pull-down binding Z-score
Solution: 1.54

Exercise: # input sequence: UCAAAAAGAAAUUGA [SHAPE_invivo_SARS-CoV-2_Motif_472] ; wanted: its pull-down binding Z-score
Solution: -0.145

Exercise: # input sequence: AGUUCAAGAAAUUCAACU ; wanted: its pull-down binding Z-score
Solution: -0.166

Exercise: # input sequence: AGGCCAUACGUGUUGGAGAUU [hsa-mir-4461] ; wanted: its pull-down binding Z-score
Solution: 0.627

Exercise: # input sequence: UGCAAAUGCAAAGUUGGCUUUUGCA [hsa-mir-3680-2_3680-1] ; wanted: its pull-down binding Z-score
Solution: -0.669

* * *

System: TO-N3 (biotin conjugate)
Assay: pull-down binding Z-score (relative to library population); higher = stronger binding
Details: RNA library: Library-2
measured_endpoint: pull-down binding Z-score
Just the number, please, no unit after it.

Worked set:
In [3]: df
Out[3]:
                                   seq_text  observed_result
0  UCACAGAAUGCUGUAGCCUCAAAGAUUUUGGGACUACCAACUCAAACUGUUGA           -0.673
1  UGGAGGCUGCAGUGAGCCGAGAUCGAGCCACUGUACUCCA [hsa-mir-1273e]             1.14
2        CCCAUAAGGGUCGAAUGGG [hsa-mir-4713]            0.272

Exercise: # input sequence: CCAUGUAAUCUUUGG [hsa-mir-1302-5] ; wanted: its pull-down binding Z-score
Solution: 0.454

Exercise: # input sequence: GUCUGCCAAAACCUUGGCAGAC [hsa-mir-3913-1] ; wanted: its pull-down binding Z-score
Solution: -1.02

Exercise: # input sequence: GACAAUGUCUUAUCUACUUUUAUUUCAGCAGCUCGGCAAGGGUUUGUUGAUUCAGAUGUAGAAACUAAAGAUGUUGUU ; wanted: its pull-down binding Z-score
Solution: -0.599

Exercise: # input sequence: GCUGCCAUCUCCCACUGGCUGC [hsa-mir-4736] ; wanted: its pull-down binding Z-score
Solution: -0.536

Exercise: # input sequence: CAUAGAUUAUGACUGUG [SHAPE_invivo_SARS-CoV-2_Motif_206] ; wanted: its pull-down binding Z-score
Solution: -0.396

Exercise: # input sequence: GCUACUGUCUGCACCUGUCACUAGCAGU [hsa-mir-130a] ; wanted: its pull-down binding Z-score
Solution: 1.12

Exercise: # input sequence: AGGUGCUAGGUCGGCCUCGGC [hsa-mir-5787] ; wanted: its pull-down binding Z-score
Solution: 1.01

Exercise: # input sequence: AAAAAUCUUAGGGAAUUUGUGUUUAAGAAUAUUGAUGGUUAUUUUAAAAUAUAUUCUAAGCACACGCCUAUUAAUUUAGUGCGUGAUCUCCCUCAGGGUUUUU ; wanted: its pull-down binding Z-score
Solution: -0.959

Exercise: # input sequence: CUUUGUCAUUAAAACCAAUAACAAAA [hsa-mir-548ap] ; wanted: its pull-down binding Z-score
Solution: 0.0976

Exercise: # input sequence: CUGUGGGUUUUACACUUAAAAACACAG [DMSMaPseq_invitro_SARS-CoV-2_Motif_239] ; wanted: its pull-down binding Z-score
Solution: -0.32

Exercise: # input sequence: UCCCAGUUUUGGGG [IAV_invivo_PB1_2_Motif_27+IAV_invivo_PB1_2_Motif_27] ; wanted: its pull-down binding Z-score
Solution: -1.36

Exercise: # input sequence: ACUUCAGAUGCUUCAUGACA [hsa-mir-6865] ; wanted: its pull-down binding Z-score
Solution: -0.0452

Exercise: # input sequence: GUUAGUUGUGGACACAUACUAAC [hsa-mir-3912] ; wanted: its pull-down binding Z-score
Solution: -1.19
